- protocol-text: splicing luciferase reporter signal modulators, primary screen, spliceosome inhibition project, cell-based, HEK293, splice +/- reporter (AID 1101);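 also: HEK293 cells carrying a splicing-competent luciferase reporter gene; test concentration not given here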
- condition-context: luminescence, 24 h, higher = more signal, called active from +8 up or from −8 down
Field: z-score. Provide a value for each of the compounds that follow.
Answer field: number only, no words.

Query (compound): C[C@H]1CC[C@@H](C(=O)O)N[C@@H]1c1ccc(C#CCN(C)C)cc1 ; field requested: z-score
-0.248

Query (compound): CC=CC1=C(CO)[C@H](O)[C@H]2O[C@H]2[C@H]1O ; field requested: z-score
-0.383

Query (compound): CCOC(=O)[C@H](Cc1ccccc1)NC(=O)CCC1CC(OC(=O)NCc2ccc3c(c2)OCO3)CC2(CCCC(COC(=O)NCc3cccc(C(F)(F)F)c3)O2)O1 (stereo partly specified) ; field requested: z-score
-1.18

Query (compound): CC(C)(C)N1C(=O)[C@H]2[C@H]3[C@H](O)[C@H](O)CC(=NO[C@@H]4O[C@H](CO)[C@@H](O)[C@H](O)[C@H]4O)[C@@H]3CC[C@H]2C1=O ; field requested: z-score
0.519

Query (compound): O=C1CCCC2OC12C(O)CCc1ccccc1 (stereo unspecified) ; field requested: z-score
0.00999

Query (compound): CC(C)NC(=O)[C@@]1(c2ccc([N+](=O)[O-])cc2)CC(=O)N(CC23CC4CC(CC(C4)C2)C3)[C@@H]1c1ccc(CO)cc1I ; field requested: z-score
0.278

Query (compound): CCOC(=O)[C@H](Cc1ccccc1)NC(=O)CCC1CC(OC(=O)NCc2ccc3c(c2)OCO3)CC2(CCCC(COC(=O)NCC(c3ccccc3)c3ccccc3)O2)O1 (stereo partly specified) ; field requested: z-score
-1.45

Query (compound): O=C1[C@H]2[C@H]3[C@H](O)[C@H](O)CC(=NOCc4ccccc4)[C@H]3CC[C@H]2C(=O)N1c1cccc(Oc2ccccc2)c1 ; field requested: z-score
0.639

Query (compound): COC(=O)CC1OC1[C@H](C)[C@@H](OC)C(C)C (stereo partly specified) ; field requested: z-score
0.743

Query (compound): CC1(C)OCC(C(O)C2=CCCCC2=O)CO1 (stereo unspecified) ; field requested: z-score
0.733

Query (compound): CC1CC/C=C\[C@H]2OC34C=CCN(Cn5nnc6ccccc65)C(=O)[C@H]3N(CCO)C(=O)[C@@H]4C2C(=O)O1 (stereo partly specified) ; field requested: z-score
-1.58

Query (compound): COC(=O)[C@H](C)NC(=O)CCC1CC(OC(=O)NCCc2ccc(F)cc2)CC2(CCCC(COC(=O)NCC(c3ccccc3)c3ccccc3)O2)O1 (stereo partly specified) ; field requested: z-score
-0.527

Query (compound): CC(=O)OC[C@H]1O[C@H](C#CCCCc2ccccc2)C=C[C@@H]1OC(C)=O ; field requested: z-score
0.492

Query (compound): COc1ccc(O[C@@H]2[C@H](O)CO[C@H]2C=CC#Cc2ccccc2)cc1 ; field requested: z-score
0.167

Query (compound): CC(C)NC(=O)[C@@]1(C)c2ccccc2C(=O)N(Cc2cc(F)cc(C(F)(F)F)c2)[C@H]1c1ccc(CO)cc1 ; field requested: z-score
-0.0501

Query (compound): COC(=O)[C@@]1(Cc2ccccc2)[C@H]2c3cc(C(=O)N4CCCC4)n(Cc4ccccn4)c3C[C@H]2CN1C(=O)c1ccccc1 ; field requested: z-score
-2.15

Origin of measurements: PubChem BioAssay
